target: Bcl-2 protein (Recombinant Human Bcl-2 Protein) (Homo sapiens, UniProt P10415); construct: purchased Novus NBP2-34889; assay: Binding evaluation of mixture library compounds to Bcl-2 using AS-MS (affinity selection mass spectrometry); settings: AS-MS, mixture of 1200 compounds, Bcl-2; ASMS Ratio(%)=(A−C)/B×100; replicate n = 2
Sequence (P10415 whole entry): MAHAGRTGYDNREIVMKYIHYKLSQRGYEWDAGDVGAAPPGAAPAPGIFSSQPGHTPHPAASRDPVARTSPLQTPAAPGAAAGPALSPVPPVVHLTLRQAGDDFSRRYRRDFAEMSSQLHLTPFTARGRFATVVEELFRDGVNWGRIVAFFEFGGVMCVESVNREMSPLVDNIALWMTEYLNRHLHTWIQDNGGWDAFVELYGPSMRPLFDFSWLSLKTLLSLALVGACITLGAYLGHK
metric: ASMS ratio (%) n = 2

Query :: What is its ASMS ratio (%) n = 2 for Bcl-2 protein (Recombinant Human Bcl-2 Protein) (Homo sapiens, UniProt P10415)? Entry: "CCOc1cncc(C#Cc2ccccc2C(=O)N2CCN(c3ccc(C(=O)NCC(F)(F)F)cc3)CC2)c1"
Result :: 0.9

P = CCOc1cncc(-c2ccc(C(=O)N3CCN(c4ccc(C(=O)NCC56CC7CC(CC(C7)C5)C6)cc4)CC3)cc2F)c1
Q = CCOc1cncc(-c2ccc(CN3CCN(c4ccc(C(=O)NCC(F)(F)F)nn4)CC3)c3ccccc23)c1
R = CCOc1cccc(-c2ccccc2CCC(=O)N2CCN(c3ccc(C(=O)NCC(F)(F)F)nn3)CC2)c1
S = CCOc1cccc(-c2ccc(CN3CCN(c4ccc(C(=O)NCC(F)(F)F)nn4)CC3)c(OC)c2)c1
Query :: Ascending by ASMS ratio (%) n = 2, please: list the compounds accordingly. Provide the labels, sequenced as the question asks.
Result :: P, S, Q, R
(P: −4.7%, S: −1.3%, Q: −0.7%, R: 0.3%)

P = CCOc1cccc(-c2csc(C(=O)N3CCN(c4ccc(C(=O)NCC56CC7CC(CC(C7)C5)C6)nn4)CC3)c2)c1
Q = CCOc1cccc(C#Cc2cncc(C(=O)N3CCN(c4ccc(C(=O)NCC56CC7CC(CC(C7)C5)C6)nn4)CC3)c2)c1
Query :: Hey, between P and Q which has a smaller measured ASMS ratio (%) n = 2? Respond with the label that goes with your answer.
Result :: P
